Target sequence: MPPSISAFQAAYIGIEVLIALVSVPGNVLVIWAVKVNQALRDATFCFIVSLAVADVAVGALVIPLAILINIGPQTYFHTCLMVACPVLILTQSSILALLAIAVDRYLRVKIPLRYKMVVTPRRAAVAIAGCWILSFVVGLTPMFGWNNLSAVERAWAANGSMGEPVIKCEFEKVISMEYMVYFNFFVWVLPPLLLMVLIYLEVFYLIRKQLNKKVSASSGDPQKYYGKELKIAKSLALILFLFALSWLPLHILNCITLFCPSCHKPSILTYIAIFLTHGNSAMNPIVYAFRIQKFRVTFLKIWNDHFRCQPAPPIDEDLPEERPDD
measuredProperty: pKi
# pKi is unitless: minus log10 of the molar concentration; print number only

Below, 3 compounds whose answers are already recorded.
[[record]]
compound = "Cc1ncnc2ccc(-c3nnc(NC(=O)N(C)Cc4ccccn4)nc3-c3ccc(F)cc3)cc12 [Compound 24]"
measuredproperty = "pKi"
observedmeasurement = 5.43

[[record]]
compound = "Cc1ncnc2ccc(-c3cnc(NC(=O)N(C)c4ccccc4)nc3-c3ccc(F)cc3)cc12 [Compound 12]"
measuredproperty = "pKi"
observedmeasurement = 5.92

[[record]]
compound = "Cc1cc(-c2cnc(NC(=O)N3CCCCC3)nc2-c2ccc(F)cc2)cc(Cl)n1 [Compound 35]"
measuredproperty = "pKi"
observedmeasurement = 5.73


Consider the additional compound presented here.
Exam item: Provide pKi value for the following compound: Cc1ncnc2ccc(-c3cnc(NC(=O)N(C)Cc4ccccn4)nc3-c3ccc(F)cc3)cc12 [Compound 9]
Marked response: 5.91
